target: UniProt:P08684; assay: Reversible inhibition of CYP3A in pooled human liver microsomes; assay type: in vitro ADME; conditions: probe felodipine (oxidation)
pIC50: −log10 of the molar value.
measured.parameter: pIC50

[
  {
    "molecule": "Cc1ncccc1NC(=O)c1ccc2c(c1)CC[C@@H]1C[C@@](O)(C(F)(F)F)CC[C@@]21Cc1ccccc1",
    "recorded.value": 5.89
  }
]

* * *

biological target: CYP2C8 (Homo sapiens, UniProt P10632)
Sequence (P10632 whole entry): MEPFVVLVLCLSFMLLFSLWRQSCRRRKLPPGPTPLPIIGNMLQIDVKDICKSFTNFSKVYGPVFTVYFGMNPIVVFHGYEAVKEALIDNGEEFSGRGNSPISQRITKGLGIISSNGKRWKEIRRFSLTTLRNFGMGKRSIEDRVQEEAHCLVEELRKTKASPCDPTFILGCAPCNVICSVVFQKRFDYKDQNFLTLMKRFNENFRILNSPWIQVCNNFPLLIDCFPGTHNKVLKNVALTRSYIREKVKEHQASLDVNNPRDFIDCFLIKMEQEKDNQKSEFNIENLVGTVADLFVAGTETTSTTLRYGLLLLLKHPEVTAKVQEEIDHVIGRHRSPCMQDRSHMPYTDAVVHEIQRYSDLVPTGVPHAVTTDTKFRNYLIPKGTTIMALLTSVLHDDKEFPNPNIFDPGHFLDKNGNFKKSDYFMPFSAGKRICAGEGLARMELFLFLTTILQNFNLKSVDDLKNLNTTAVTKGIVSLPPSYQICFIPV
measured.parameter: IC50 (nM)

[
  {
    "molecule": "Cc1ncccc1NC(=O)c1ccc2c(c1)CC[C@@H]1C[C@@](O)(C(F)(F)F)CC[C@@]21Cc1ccccc1",
    "recorded.value": 480
  }
]

* * *

target: CYP2C19 (Homo sapiens)
Sequence (P33261 whole entry): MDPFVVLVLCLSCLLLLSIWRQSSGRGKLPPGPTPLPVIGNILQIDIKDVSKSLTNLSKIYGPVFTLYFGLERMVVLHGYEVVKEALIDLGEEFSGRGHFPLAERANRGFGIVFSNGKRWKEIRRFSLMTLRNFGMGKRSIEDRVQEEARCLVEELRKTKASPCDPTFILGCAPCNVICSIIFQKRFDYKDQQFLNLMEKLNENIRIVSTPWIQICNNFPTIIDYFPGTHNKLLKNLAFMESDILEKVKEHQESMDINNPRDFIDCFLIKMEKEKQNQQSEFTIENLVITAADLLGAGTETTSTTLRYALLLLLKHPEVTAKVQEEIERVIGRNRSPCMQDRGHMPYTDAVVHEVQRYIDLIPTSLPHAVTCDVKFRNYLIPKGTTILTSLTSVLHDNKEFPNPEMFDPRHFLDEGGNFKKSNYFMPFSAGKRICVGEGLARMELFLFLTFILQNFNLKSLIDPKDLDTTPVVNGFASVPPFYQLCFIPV
pIC50: −log10 of the molar value.
measured.parameter: pIC50

[
  {
    "molecule": "Cc1ncccc1NC(=O)c1ccc2c(c1)CC[C@@H]1C[C@@](O)(C(F)(F)F)CC[C@@]21Cc1ccccc1",
    "measured.parameter": "pIC50",
    "recorded.value": "< 4.52"
  }
]

* * *

target: UniProt P08684; test: clinical; settings: in vivo

[
  {
    "molecule": "Cc1ncc2n1-c1ccc(Cl)cc1C(c1ccccc1F)=NC2",
    "Cmax": "7.2 ng/mL"
  }
]

* * *

molecular target: CYP3A (Homo sapiens); test: clinical; conditions: in vivo
Sequence (P08684 2-503): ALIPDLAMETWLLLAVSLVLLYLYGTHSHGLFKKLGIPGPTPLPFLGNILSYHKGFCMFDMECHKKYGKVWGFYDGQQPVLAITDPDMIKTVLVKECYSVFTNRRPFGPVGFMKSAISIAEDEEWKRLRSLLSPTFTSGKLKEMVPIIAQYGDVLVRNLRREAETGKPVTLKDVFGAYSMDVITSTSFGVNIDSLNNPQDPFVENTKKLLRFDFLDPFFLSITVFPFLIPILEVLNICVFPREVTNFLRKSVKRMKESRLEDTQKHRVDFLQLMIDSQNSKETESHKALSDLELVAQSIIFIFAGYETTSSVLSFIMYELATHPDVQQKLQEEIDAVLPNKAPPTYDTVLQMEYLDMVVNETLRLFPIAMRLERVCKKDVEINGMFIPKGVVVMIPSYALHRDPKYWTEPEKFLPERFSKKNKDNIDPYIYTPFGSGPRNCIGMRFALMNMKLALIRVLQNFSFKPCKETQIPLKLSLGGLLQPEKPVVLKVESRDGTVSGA

[
  {
    "molecule": "Cc1ncc2n1-c1ccc(Cl)cc1C(c1ccccc1F)=NC2",
    "half-life / h": 3.34
  }
]

* * *

molecular target: CYP3A (Homo sapiens); assay: clinical; conditions: in vivo

[
  {
    "molecule": "Cc1ncc2n1-c1ccc(Cl)cc1C(c1ccccc1F)=NC2",
    "tgt": "CYP3A (Homo sapiens)",
    "AUC(0-t)": "19.8 ng·h/mL"
  }
]

* * *

molecular target: CYP2B6 (Homo sapiens, UniProt P20813)
Sequence (P20813 whole entry): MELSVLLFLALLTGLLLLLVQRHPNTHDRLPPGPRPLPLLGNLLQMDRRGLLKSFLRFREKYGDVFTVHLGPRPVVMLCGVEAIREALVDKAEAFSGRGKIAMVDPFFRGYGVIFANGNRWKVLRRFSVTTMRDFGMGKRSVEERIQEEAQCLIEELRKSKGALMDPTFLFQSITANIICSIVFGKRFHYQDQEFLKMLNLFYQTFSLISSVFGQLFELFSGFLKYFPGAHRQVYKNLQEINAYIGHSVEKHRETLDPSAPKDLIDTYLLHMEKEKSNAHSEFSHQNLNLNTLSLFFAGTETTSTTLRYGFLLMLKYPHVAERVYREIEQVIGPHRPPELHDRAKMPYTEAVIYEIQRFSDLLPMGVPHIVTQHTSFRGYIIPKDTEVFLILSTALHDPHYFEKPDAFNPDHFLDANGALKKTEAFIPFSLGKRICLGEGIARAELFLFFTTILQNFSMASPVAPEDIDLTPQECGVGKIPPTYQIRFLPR

[
  {
    "compound": "Cc1ncccc1NC(=O)c1ccc2c(c1)CC[C@@H]1C[C@@](O)(C(F)(F)F)CC[C@@]21Cc1ccccc1 [PF‐00251802, dagrocorat]",
    "IC50": "> 30 µM"
  }
]

* * *

molecular target: UniProt:P10635; test: Time-dependent inhibition of CYP2D6 in pooled human liver microsomes
Sequence (P10635 whole entry): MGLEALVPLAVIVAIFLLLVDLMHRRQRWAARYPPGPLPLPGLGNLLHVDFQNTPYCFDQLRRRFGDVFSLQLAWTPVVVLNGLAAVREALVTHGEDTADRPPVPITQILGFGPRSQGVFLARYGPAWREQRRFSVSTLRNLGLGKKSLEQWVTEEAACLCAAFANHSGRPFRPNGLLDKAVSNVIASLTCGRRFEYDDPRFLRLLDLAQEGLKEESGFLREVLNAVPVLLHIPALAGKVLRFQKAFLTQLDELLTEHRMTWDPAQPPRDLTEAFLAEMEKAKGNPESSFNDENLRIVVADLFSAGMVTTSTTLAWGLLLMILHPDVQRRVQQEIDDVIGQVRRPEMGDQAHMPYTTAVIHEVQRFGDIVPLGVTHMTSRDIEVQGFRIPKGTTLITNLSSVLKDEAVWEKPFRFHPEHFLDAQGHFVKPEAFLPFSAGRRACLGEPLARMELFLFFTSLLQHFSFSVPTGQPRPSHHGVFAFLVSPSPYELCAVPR
pKi: −log10 of the molar value.
measured.parameter: pKi

[
  {
    "molecule": "Cc1ncccc1NC(=O)c1ccc2c(c1)CC[C@@H]1C[C@@](O)(C(F)(F)F)CC[C@@]21Cc1ccccc1",
    "tgt": "UniProt:P10635",
    "recorded.value": 6.24
  }
]

* * *

biological target: UniProt:P08684; assay: clinical; conditions: in vivo, Tmax of midazolam, median (range)
measured.parameter: Tmax

[
  {
    "molecule": "Cc1ncc2n1-c1ccc(Cl)cc1C(c1ccccc1F)=NC2",
    "recorded.value": "~30 min"
  }
]

* * *

target: CYP3A (Homo sapiens); assay: clinical; conditions: in vivo

[
  {
    "compound": "Cc1ncc2n1-c1ccc(Cl)cc1C(c1ccccc1F)=NC2 [Midazolam, midazolam]",
    "unit.text": "ng·h/mL",
    "AUC(0-inf)": 20.3
  }
]

* * *

molecular target: CYP2C9 (Homo sapiens, UniProt P11712)
Sequence (P11712 whole entry): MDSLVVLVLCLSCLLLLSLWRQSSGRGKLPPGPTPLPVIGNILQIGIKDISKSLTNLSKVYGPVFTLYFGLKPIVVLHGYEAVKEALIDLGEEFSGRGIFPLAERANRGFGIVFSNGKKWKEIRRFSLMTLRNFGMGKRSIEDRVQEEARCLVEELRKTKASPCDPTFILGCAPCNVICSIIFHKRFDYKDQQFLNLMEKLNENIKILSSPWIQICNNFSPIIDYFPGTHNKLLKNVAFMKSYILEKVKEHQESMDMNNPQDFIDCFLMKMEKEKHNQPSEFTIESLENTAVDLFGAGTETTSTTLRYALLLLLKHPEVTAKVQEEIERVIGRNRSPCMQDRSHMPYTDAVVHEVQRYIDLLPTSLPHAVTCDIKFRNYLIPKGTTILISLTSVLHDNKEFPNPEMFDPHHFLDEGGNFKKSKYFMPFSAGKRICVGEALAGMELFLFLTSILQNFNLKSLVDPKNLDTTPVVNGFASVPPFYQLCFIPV
pIC50: −log10 of the molar value.
measured.parameter: pIC50

[
  {
    "molecule": "Cc1ncccc1NC(=O)c1ccc2c(c1)CC[C@@H]1C[C@@](O)(C(F)(F)F)CC[C@@]21Cc1ccccc1",
    "recorded.value": 5.74
  }
]
